Provide the recorded logD for the entries that follow.
- run description: physchem
- Assay type: physicochemical
- cond: pH 7.4
Could you respond with only the numeric value?

Form field logD, entry COc1cccc(-c2cc(=O)[nH]c(Nc3ccccc3)n2)n1 : 3.51

Form field logD, entry COc1cccc(-c2cc(=O)[nH]c(Nc3c[nH]c(C(=O)O)c3)n2)c1 : -0.38

Form field logD, entry COc1cccc(-c2cc(=O)[nH]c(Nc3ccnc(N)c3)n2)c1 : 1.64

Form field logD, entry COc1cc(-c2cc(=O)[nH]c(Nc3ccccc3)n2)ccn1 : 3.15

* * *

- run description: in vitro
- Assay type: in vitro ADME
- cond: human, microsomes
Record met whenever half-life is at 0.3 h or higher; record not met when lower.

Problem: Is half-life at least 0.3 h? Consider COc1cccc(-c2nc(Nc3c[nH]c(C(=O)O)c3)cc(=O)[nH]2)c1
Solution: met

Problem: Is half-life at least 0.3 h? Consider COc1cc(-c2cc(=O)[nH]c(Nc3ccc(Cl)c(O)c3)n2)ccn1
Solution: met

Problem: Is half-life at least 0.3 h? Consider COc1cccc(-c2cc(=O)[nH]c(Nc3cc[nH]n3)n2)c1
Solution: met

Problem: Is half-life at least 0.3 h? Consider COc1cccc(-c2cc(=O)[nH]c(Nc3c[nH]c(C(=O)O)c3)n2)c1
Solution: met

Problem: Is half-life at least 0.3 h? Consider COc1cc(-c2cc(=O)[nH]c(Nc3ccccc3)n2)ccn1
Solution: not met

Problem: Is half-life at least 0.3 h? Consider COc1cccc(-c2cc(=O)[nH]c(Nc3ccnc(N)c3)n2)c1
Solution: met

Problem: Is half-life at least 0.3 h? Consider CC(C)Cc1cc(C(=O)NCCO)nc(=O)[nH]1
Solution: met

Problem: Is half-life at least 0.3 h? Consider COc1cccc(-c2nc(Nc3ccccc3)cc(=O)[nH]2)c1
Solution: not met

Problem: Is half-life at least 0.3 h? Consider COc1cccc(-c2cc(=O)[nH]c(Nc3cccc(O)c3)n2)c1
Solution: met

Problem: Is half-life at least 0.3 h? Consider COc1cccc(-c2cc(=O)[nH]c(Nc3ccccc3)n2)n1
Solution: met

Problem: Is half-life at least 0.3 h? Consider COc1cccc(-c2cc(Nc3ccccc3)[nH]c(=O)n2)c1
Solution: met

Problem: Is half-life at least 0.3 h? Consider COc1ccc(C)c(-c2cc(=O)[nH]c(Nc3ccccc3)n2)c1
Solution: met

Problem: Is half-life at least 0.3 h? Consider O=c1cc(Nc2cccc(O)c2)[nH]c(=O)[nH]1
Solution: met
